Recorded pIC50 values for a group of compounds are listed next.
System: A2058
Assay method text: Cytotoxicity in human A2058 cells assessed as reduction in cell survival incubated for 72 hrs by MTS assay
Assay type: functional, cell-based
Recorded conditions: A2058, 72 h
pIC50: −log10 of the molar value.
Recorded endpoint: pIC50

> print(dat)
                  compound.structure.string  test.target  recorded.endpoint  qualifier.operator  result.value
1  CC1(C)[C@@H](Cl)C[C@]23[C@@H]4CC(=O)N2C=CC2=NC(=O)N[C@@]21N3c1cc(Br)c(Br)c(Br)c14        A2058              pIC50                   =          5.85
2  CC1(C)[C@@H](Cl)C[C@]23[C@@H]4CC(=O)N2C=CC2=NC(=O)N[C@@]21N3c1cc(Br)cc(Br)c14        A2058              pIC50                   =          5.17
3  CO[C@H]1[C@H](O)C2=NC(=O)N[C@@]23N2c4cc(Br)c(Br)c(Br)c4[C@H]4CC(=O)N1[C@]42C[C@H](Cl)C3(C)C        A2058              pIC50                   <          4.30
4  CC1(C)[C@@H](Cl)C[C@]23[C@@H]4CC(=O)N2C=CC2=NC(=O)N[C@@]21N3c1cc(Br)c(Br)cc14        A2058              pIC50                   =          5.57
5  CC1(C)[C@@H](Cl)C[C@]23[C@@H]4CC(=O)N2C=CC2=NC(=O)N[C@@]21N3c1cc(Br)ccc14        A2058              pIC50                   =          4.70

The reported measurements were obtained from ChEMBL document CHEMBL4130581.
